- Experiment description: HUVEC growth inhibition – cell-based, human, primary screen (AID 575);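 also: 100% = median of untreated cell wells with 0.1% DMSO on each plate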
- Applied conditions: HUVEC proliferation, CellTiter-Glo luminescence, 72 h; at 10 µM; stronger effect = lower value
Activity calls are given as the source filed them.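 The calls were made as follows: active = viability at or below 30% in both replicate assays; inconclusive = viability at or below 30% in just one of the two assays; inactive = the rest.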
Form field: viability (one value per entry).
Reported property: viability

{"columns": ["Molecule", "Result"],
 "data": [
  ["COC(=O)c1c(O)ccc(Oc2ccccc2)c1C(=O)OC", "95.9% (inactive)"],
  ["COc1ccc(C2CNC(=O)C2)cc1OC1CCCC1 (stereo unspecified)", "114% (inactive)"],
  ["CC1=CCC(C(C)(C)NC(=O)c2ccccc2)C/C1=N\\O (stereo unspecified)", "112% (inactive)"],
  ["CCC(=O)Nc1ccc2nc(SCC(=O)N3CCCC3)sc2c1", "114% (inactive)"],
  ["CCOC(=O)NC1(NCc2ccccc2)Oc2ccccc2O1", "58.5% (inactive)"],
  ["COc1ccc(-n2c(Cc3cccn3C)nnc2SCC(=O)Nc2cccc(OC)c2)cc1", "80.9% (inactive)"],
  ["CC(C)Cn1c(=O)c(C2=NS(=O)(=O)c3ccccc3N2)c(O)c2ccccc21", "97% (inactive)"],
  ["Cc1ncc([N+](=O)[O-])n1CC(O)CCl (stereo unspecified)", "108% (inactive)"],
  ["Cc1c(NC(=O)CN2c3cccc4cccc(c34)S2(=O)=O)c(=O)n(-c2ccccc2)n1C", "82.6% (inactive)"],
  ["CN(C)C(=O)N1CCCC(C(=O)NCc2ccccc2)C1 (stereo unspecified)", "102% (inactive)"],
  ["CCOC(=O)c1ccc(N2C(=O)CC(N3CCN(C/C=C/c4ccccc4)CC3)C2=O)cc1 (stereo unspecified)", "91.4% (inactive)"]
]}
